- Test system: H524
- method-summary: 72 hr cytotoxicity: SCLC variant
- Assay type: cell-based
- settings: Homo sapiens, NCI-H524
pIC50: −log10 of the molar value.
Reported pIC50 values are given for each entry in this list.
measured-endpoint: pIC50

>>> value_measured("COc1cc([C@@H]2c3cc4c(cc3[C@@H](O[C@@H]3O[C@@H]5CO[C@@H](C)O[C@H]5[C@H](O)[C@H]3O)[C@H]3COC(=O)[C@H]23)OCO4)cc(OC)c1O [Etoposide]")
5.85
>>> value_measured("N[C@@H](Cc1ccc(N(CCCl)CCCl)cc1)C(=O)O")
5.55
>>> value_measured("COc1cccc2c1C(=O)c1c(O)c3c(c(O)c1C2=O)C[C@@](O)(C(=O)CO)C[C@@H]3O[C@H]1C[C@H](N)[C@H](O)[C@H](C)O1")
7.70
>>> value_measured("CN(C)CCNC(=O)c1cccc(NC(=O)Nc2ccc(N(CCCl)CCCl)cc2)c1.Cl")
6.47

----------
- System: HCC15
- method-summary: cells
- Assay type: cell-based
- settings: Homo sapiens
pIC50: −log10 of the molar value.
measured-endpoint: pIC50

>>> value_measured("CN(C)CCNC(=O)c1cccc(NC(=O)Nc2ccc(N(CCCl)CCCl)cc2)c1.Cl")
5.21

----------
Listing: pIC50 of selected compounds
- Tested on: H562
- method-summary: 72 hr cytotoxicity: SCLC classic
- Assay type: cell-based
- settings: Homo sapiens
pIC50: −log10 of the molar value.
measured-endpoint: pIC50

>>> value_measured("COc1cccc2c1C(=O)c1c(O)c3c(c(O)c1C2=O)C[C@@](O)(C(=O)CO)C[C@@H]3O[C@H]1C[C@H](N)[C@H](O)[C@H](C)O1")
6.77
>>> value_measured("COc1cc([C@@H]2c3cc4c(cc3[C@@H](O[C@@H]3O[C@@H]5CO[C@@H](C)O[C@H]5[C@H](O)[C@H]3O)[C@H]3COC(=O)[C@H]23)OCO4)cc(OC)c1O [Etoposide]")
5.26
>>> value_measured("N[C@@H](Cc1ccc(N(CCCl)CCCl)cc1)C(=O)O")
5.55

----------
- Tested on: lymphoma cell lines (DLBCL GBC and ABC subtypes, mantle cell lymphoma)
- method-summary: Cytotoxicity on panel of lymphoma cell lines
- Assay type: cell-based, human
- settings: Homo sapiens, 11 of 27 lymphoma lines, highly sensitive; read-out: IC50 range
measured-endpoint: IC50

>>> value_measured("CN(C)CCNC(=O)c1cccc(NC(=O)Nc2ccc(N(CCCl)CCCl)cc2)c1.Cl")
"120 to 840 nM"

----------
- Test system: H596 (PIK3CA)
- method-summary: cells
- Type: cell-based
- settings: Homo sapiens, NCI-H596; read-out: IC50
pIC50: −log10 of the molar value.
measured-endpoint: pIC50

>>> value_measured("O=NN(CCCl)C(=O)NCCCl [BCNU, Carmustine]")
"≤ 3.65"
